Source listed as the supplement of paper PMC11061612.

system: Detroit562 (Head and Neck Carcinoma); assay: combination Emax (second highest fraction inhibited in the dose matrix, 72 h); higher = more inhibition; extreme values may be limits of the assay
// map combination Emax to label using lower range: < 0.5; middle range: ≥ 0.5 and < 0.7; upper range: ≥ 0.7

COMPOUND	LABEL VALUE
CC1(C)CCC(CN2CCN(c3ccc(C(=O)NS(=O)(=O)c4ccc(NCC5CCOCC5)c([N+](=O)[O-])c4)c(Oc4cnc5[nH]ccc5c4)c3)CC2)=C(c2ccc(Cl)cc2)C1 [Venetoclax] + C1CN(CCC1(C(=O)N[C@@H](CCO)C2=CC=C(C=C2)Cl)N)C3=NC=NC4=C3C=CN4 [Capivasertib] (first compound max 1 µM, 7x7, partner max 3 µM)	lower range
Cc1c2c(nn1C)CSCc1cc(n(C)n1)CSc1cc(c3ccccc3c1)OCCCc1c(C(=O)O)n(C)c3c-2c(Cl)ccc13 [AZD5991] + C=CCn1c(=O)c2cnc(Nc3ccc(N4CCN(C)CC4)cc3)nc2n1-c1cccc(C(C)(C)O)n1 [AZD1775] (first compound max 1 µM, partner max 1 µM)	upper range
COc1nnc2ccc(N3CCC(c4ccc(OCCN5CCN(C)C(=O)[C@H]5C)cc4)CC3)nn12 [AZD5153] + CN(CC[C@H](CSC1=CC=CC=C1)NC2=C(C=C(C=C2)S(=O)(=O)NC(=O)C3=CC=C(C=C3)N4CCC(CC4)[C@H](C5=CC=CC=C5C6=CC=C(C=C6)Cl)O)S(=O)(=O)C(F)(F)F)CCO [AZD4320] (first compound max 1 µM, 7x7, partner max 1 µM)	upper range
CN(C)CCCOc1ccc(-c2ccc3ncc4c(c3c2)n(C2CCOCC2)c(=O)n4C)cn1 [AZD0156] + C[C@@H]1COCCN1C2=NC(=NC(=C2)C3(CC3)[S@](=N)(=O)C)C4=C5C=CNC5=NC=C4 [AZD6738] (first compound max 1 µM, 7x7, partner max 10 µM)	upper range
CN(CCO)CC[C@H](CSc1ccccc1)Nc1ccc(S(=O)(=O)NC(=O)c2ccc(N3CCC([C@@H](O)c4ccccc4-c4ccc(Cl)cc4)CC3)cc2)cc1S(=O)(=O)C(F)(F)F [AZD4320] + CN(C)CCCOc1ccc(-c2ccc3ncc4c(c3c2)n(C2CCOCC2)c(=O)n4C)cn1 [AZD0156] (first compound max 1 µM, 7x7, partner max 1 µM)	lower range
CC(=O)c1c(C)c2cnc(Nc3ccc(N4CCNCC4)cn3)nc2n(C2CCCC2)c1=O [Palbociclib] + Cc1c2c(nn1C)CSCc1cc(n(C)n1)CSc1cc(c3ccccc3c1)OCCCc1c(C(=O)O)n(C)c3c-2c(Cl)ccc13 [AZD5991] (first compound max 10 µM, 7x7, partner max 1 µM)	middle range
CC1(C)CCC(CN2CCN(c3ccc(C(=O)NS(=O)(=O)c4ccc(NCC5CCOCC5)c([N+](=O)[O-])c4)c(Oc4cnc5[nH]ccc5c4)c3)CC2)=C(c2ccc(Cl)cc2)C1 [Venetoclax] + C=CCn1c(=O)c2cnc(Nc3ccc(N4CCN(C)CC4)cc3)nc2n1-c1cccc(C(C)(C)O)n1 [AZD1775] (first compound max 1 µM, partner max 1 µM)	middle range
COc1cc2ncnc(Nc3ccc(F)c(Cl)c3)c2cc1OCCCN1CCOCC1 [Gefitinib] + CC(C)n1c(=O)n(C)c2cnc3cc(F)c(-c4ccc(OCCCN5CCCCC5)nc4)cc3c21 [AZD1390] (first compound max 10 µM, 7x7, partner max 0.3 µM)	lower range
